# protocolDetails: NCI Yeast Anticancer Drug Screen. Data for the bub3 strain (AID 167)
# particulars: S. cerevisiae bub3 mutant strain, at 50.0 µM
Compounds without any hit were thinned out: in the full panel of roughly 79,000, 15% have a hit. The source made the active and inactive calls. Cut-off read from the data, not from the text of the source: active = growth inhibition above about 70%; inactive = the rest.
Possible outcomes: active, inactive

[[record]]
molecule = "O=[N+]([O-])c1ccc(/C=C/c2cc(Cl)ccc2S(=O)(=O)F)c(Cl)c1"
category = "inactive"

[[record]]
molecule = "Nc1ccc(N)cc1"
category = "inactive"

[[record]]
molecule = "c1ccc(C2(N3CCOCC3)CSC2)cc1"
category = "inactive"

[[record]]
molecule = "CN(C)CCNC(=O)c1cc([N+](=O)[O-])cc2c1Oc1ccccc1O2"
category = "inactive"

[[record]]
molecule = "NC(=O)c1c[se]c(C2OC(CO)C(O)C2O)n1 (centres undefined)"
category = "inactive"

[[record]]
molecule = "Cc1nc2ccc(Br)cc2c(=O)n1-c1nnc(C(C)(C)C)s1"
category = "inactive"

[[record]]
molecule = "c1ccc(-c2c[se]nn2)cc1"
category = "inactive"

[[record]]
molecule = "Clc1ccc(C(c2ccccc2Cl)C(Cl)(Cl)Cl)cc1 (centres undefined)"
category = "inactive"

[[record]]
molecule = "COc1ccc2c(c1)C1(C)CCN(C)CC(C1)C2O (centres undefined)"
category = "inactive"

[[record]]
molecule = "CC(C)(O)/C=C/C(=O)[C@](C)(O)[C@H]1[C@H](O)C[C@@]2(C)[C@@H]3CC=C4[C@@H](C[C@H](O)C(=O)C4(C)C)[C@]3(C)C(=O)C[C@]12C"
category = "inactive"

[[record]]
molecule = "C1=CC2C=CC(C=C1)[PH+]2c1ccccc1.[C-]#[O+].[C-]#[O+].[C-]#[O+].[C-]#[O+].[C-]#[O+].[Cr] (centres undefined)"
category = "inactive"

[[record]]
molecule = "C[CH2][Pb]([CH2]C)([CH2]C)[N]1C(=O)c2c(Cl)c(Cl)c(Cl)c(Cl)c2C1=O"
category = "inactive"

[[record]]
molecule = "CC1(C)N=C(N)N=C(N)N1c1cccc(CCCCc2ccc(S(=O)(=O)F)c(Cl)c2)c1"
category = "active"

[[record]]
molecule = "Oc1ccccc1C=NCCN=Cc1ccccc1O"
category = "inactive"

[[record]]
molecule = "CC1CC(O)C(=O)C(O[C@@H]2C[C@@H]3CC[C@@H]4[C@H](CC[C@]5(C)C(C6=CC(=O)OC6)CC[C@]45O)[C@@]3(C=O)C[C@H]2O)O1 (some centres undefined)"
category = "inactive"

[[record]]
molecule = "CC1CN1P(=O)(N1CCc2ccccc21)N1CC1C (centres undefined)"
category = "inactive"

[[record]]
molecule = "O=[C-]C(F)(F)F.[C-]#[O+].[C-]#[O+].[C-]#[O+].[Mo].[c-]1[c-][c-][cH-][c-]1"
category = "inactive"

[[record]]
molecule = "CN(C)/N=C/c1c[nH]c2ccccc12"
category = "inactive"

[[record]]
molecule = "c1ccc2c(c1)SCCC2NC1=NCCO1 (centres undefined)"
category = "inactive"

[[record]]
molecule = "O=C(O)C(F)F"
category = "inactive"

[[record]]
molecule = "CC(=O)Nc1nn[nH]n1"
category = "inactive"

[[record]]
molecule = "COc1cc(C2c3cc4c(cc3OC(C)(O)C2C(C)=O)OCO4)cc(OC)c1OC (centres undefined)"
category = "inactive"

[[record]]
molecule = "S=C([S-])N1CCCCC1.S=C([S-])N1CCCCC1.[Zn]"
category = "inactive"

[[record]]
molecule = "C=CC(=O)OC(C)C"
category = "inactive"

[[record]]
molecule = "O=C(Nc1ccc(S(=O)(=O)F)cc1)c1ccc2ccccc2c1O"
category = "inactive"

[[record]]
molecule = "CCCC[C@H]1C(=O)O[C@H](C)[C@H](NC(=O)c2cccc(NC=O)c2O)C(=O)O[C@@H](C)[C@@H]1OC(=O)CC(C)C"
category = "inactive"

[[record]]
molecule = "CCCCCCCCCCCCCC(=O)O.[Pb]"
category = "inactive"

[[record]]
molecule = "[N-]=[N+]=[N-]"
category = "inactive"

[[record]]
molecule = "CCC[CH2][Sn]([CH2]CCC)([n]1cncn1)[n]1cncn1"
category = "active"

[[record]]
molecule = "COc1cc(C2c3cc4c(cc3OC3(OC)COC(=O)C23)OCO4)cc(OC)c1OC(C)=O (centres undefined)"
category = "inactive"

[[record]]
molecule = "CN1CCOP(=O)(Oc2ccccc2)N1 (centres undefined)"
category = "inactive"

[[record]]
molecule = "C1CN2CCOC2O1"
category = "inactive"

[[record]]
molecule = "CC12CCC3C(CC(N4CC4)C4(O)CC(O)CCC34C)C1CCC2=O (centres undefined)"
category = "inactive"

[[record]]
molecule = "C/C=C\\C(C)=C/C(C)C(=O)CC(O)CC1CC(=O)NC(=O)C1 (centres undefined)"
category = "inactive"

[[record]]
molecule = "CCOC(=O)C(Cc1c[nH]c2ccccc12)NC(=O)/C=C/N(CCCl)CCCl (centres undefined)"
category = "inactive"

[[record]]
molecule = "CC(C)(C)c1cc2c(=O)o[s+]3oc(=O)c(c1)c23"
category = "inactive"

[[record]]
molecule = "Cc1cccc(C)c1NC(N)=S"
category = "inactive"

[[record]]
molecule = "Cc1nccc2c1[nH]c1ccccc12"
category = "inactive"

[[record]]
molecule = "CN(C)[C@@H]1C(=O)C(C(N)=O)=C(O)[C@]2(O)C(=O)C3C(=O)c4c(O)ccc(Cl)c4[C@](C)(O)[C@H]3C[C@@H]12 (some centres undefined)"
category = "inactive"

[[record]]
molecule = "COc1ccc2nc3ccccc3c(NCCCN(C)CCCl)c2c1"
category = "inactive"

[[record]]
molecule = "C[N+]12CCC34C5=CC(=O)C(=O)C=C5[N+]5(C)C(=O)CC6OCC=C(C1)C(CC32)C6C45 (centres undefined)"
category = "inactive"

[[record]]
molecule = "COc1ccc2c(c1OC)C13CCN(C)C(C2)C12C=CC(=O)C3c1c(OC)ccc(OC)c12 (centres undefined)"
category = "inactive"

[[record]]
molecule = "C[C@]12CC[C@H]3[C@@H](CCC4=CC(=O)CC[C@@]43C)[C@]1(O)CC[C@]2(O)C(=O)CO"
category = "inactive"

[[record]]
molecule = "CC(CCC#N)([N+](=O)[O-])[N+](=O)[O-]"
category = "inactive"


Where these numbers come from: PubChem BioAssay (NCI)
